Experiment: splicing luciferase reporter signal modulators, primary screen, spliceosome inhibition project, cell-based, HEK293, splice +/- reporter (AID 1101);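 also: HEK293 cells carrying a splicing-competent luciferase reporter gene; test concentration not given here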
Settings: luminescence, 24 h, higher = more signal, called active from +8 up or from −8 down
Please provide measured z-score for the entries that follow.
Reply briefly: the number, and no unit.

Could you share which z-score value was measured for CS(=O)(=O)CCOC(=O)C1=CC(c2ccc(CO)cc2)=CC(C2CC2)N(Cc2cc3c(cc2Br)OCO3)C=C1C(=O)OCCS(C)(=O)=O (stereo unspecified) ? 0.883

Could you share which z-score value was measured for COCCOC(=O)N1C(=O)[C@@]2(c3cc(C#CCNC(N)=O)ccc31)[C@H](c1ccc(O)cc1)N1[C@H](c3ccccc3)[C@H](c3ccccc3)OC(=O)[C@H]1[C@@H]2C(=O)Nc1nc2ccccc2s1 ? -0.564

Could you share which z-score value was measured for COc1ccc([Si](C)(C)[C@@H]2[C@@H](CCn3cc([C@H](O)c4ccccc4)nn3)O[C@]3(C(=O)N(Cc4cccc(N5CCOC5=O)c4)c4ccccc43)[C@H]2C)cc1 ? 1.7

Could you share which z-score value was measured for CC(C)(C)N1CC=CC23O[C@@H]4C=CCOC(=O)[C@@H]4[C@H]2C(=O)N(CCCCCO)[C@@H]3C1=O (stereo partly specified) ? -0.018

Could you share which z-score value was measured for C=CCC(OC(C)=O)[C@@H]1[C@@H](N(Cc2cccc3ccccc23)C(=O)c2cccc3ccccc23)c2cc(OCCCO)ccc2N1C(=O)c1ccc2ccccc2n1 (stereo partly specified) ? -0.202

Could you share which z-score value was measured for CCCCCCCCCCC(O)C1C=CC2C(=O)N(Cc3ccccc3)C(=O)C2N1n1cnnc1 (stereo unspecified) ? -0.47

----------
Please provide measured composite z-score for the entries that follow.
Assay: COS7 lysate on small-molecule microarray, probe aHis, 635 nm (AID 1123);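 also: z-score combines 667nm fluorescence intensity with signal-to-noise per printed compound spot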
Conditions: COS7 cell lysate, fluorescence, higher = more signal

Could you share which composite z-score value was measured for CC(=O)NCCCC[C@@H]1NC(=O)[C@@H]2C[C@H](C(=O)NCCCCN(C)C)[C@H](c3ccc(O)cc3)N2C1=O ? -0.089

Could you share which composite z-score value was measured for Cc1ccc(F)cc1S(=O)(=O)N[C@@H]1CCN(Cc2ccc(-c3ccccc3)cc2)C1 ? 0.249

Could you share which composite z-score value was measured for CC(C)CNC(=O)[C@@]1(c2ccc([N+](=O)[O-])cc2)CC(=O)N(CC23CC4CC(CC(C4)C2)C3)[C@@H]1c1ccc(CO)cc1 ? 1.42

Could you share which composite z-score value was measured for CCOC(=O)[C@H]1C[C@H]2O[C@@]23C[C@H]1C(=O)N1CCCC1[C@@H]3O[Si](C)(C)C(C)(C)C (some centres undefined) ? 0.178

----------
Please provide measured z-score for the entries that follow.
Test: PSAC antagonists in infected red cells, primary screen, cell-based, P. falciparum Indochina, OD700, 18 h (AID 1157)
Conditions: P. falciparum Indochina infected erythrocytes, osmotic lysis OD700, 18 h; higher = more signal, called active from +8 up or from −8 down
Reply briefly: the number, and no unit.

Could you share which z-score value was measured for COCCCNC(=O)[C@@]1(c2ccc([N+](=O)[O-])cc2)CC(=O)N(CC23CC4CC(CC(C4)C2)C3)[C@@H]1c1ccc(CO)cc1 ? 0.888

Could you share which z-score value was measured for O=C1OCC=C[C@H]2OC34C=CCN(c5ccc6ccccc6c5)C(=O)[C@H]3N(CCCO)C(=O)[C@@H]4[C@@H]12 (some centres undefined) ? -1.56

Could you share which z-score value was measured for O=C1N(CCS(=O)(=O)c2ccccc2)Cc2ccccc2[C@H]2OC(c3ccc(OCCCO)cc3)=N[C@@]12CCS(=O)(=O)c1ccccc1 ? 6.48

Could you share which z-score value was measured for C=CC[C@]1(C(=O)N2CCOCC2)N=C(c2ccc(OCCCO)cc2)O[C@H]1c1ccccc1 ? 0.471

----------
Molecular target: Neurogenic locus notch homolog protein 3 (Homo sapiens)
Assay: NOTCH3 binders on small-molecule microarray, primary screen, biochemical, 635/667 nm fluorescence (AID 1096)
Conditions: NOTCH3 binding, 635 nm fluorescence, higher = more signal
Please provide measured composite z-score for the entries that follow.
Reply briefly: the number, and no unit.

Could you share which composite z-score value was measured for CC(C)N1C(=O)c2ccccc2[C@@H](C(=O)NCCCN(C)C)[C@@H]1c1ccc(CO)cc1 ? -0.807

Could you share which composite z-score value was measured for C=CCNC(=O)[C@@H]1[C@H]2C(=O)O[C@H](c3ccccc3)[C@H](c3ccccc3)N2[C@H](c2ccccc2OCCO)[C@@]12C(=O)Nc1ccc(C#CC3=CCCCC3)cc12 ? 1.11

Could you share which composite z-score value was measured for Cc1ccc(S[C@]2(C(=O)NCc3ccccc3)CC(=O)N(Cc3ccccc3)[C@@H]2c2ccc(CO)cc2)cc1 ? -0.91

Could you share which composite z-score value was measured for CCCNC(=O)[C@@]1(c2ccc([N+](=O)[O-])cc2)CC(=O)N(CC23CC4CC(CC(C4)C2)C3)[C@@H]1c1ccc(CO)cc1 ? 0.305

Could you share which composite z-score value was measured for COc1ccc([Si](C)(C)[C@H]2[C@H](CCn3cc(CCO)nn3)O[C@@]3(C(=O)N(Cc4ccc(N5CCOC5=O)cc4)c4ccccc43)[C@@H]2C)cc1 ? 0.928

Could you share which composite z-score value was measured for CCOC(=O)C1=CCC(C(C)(C)C)N(S(=O)(=O)c2ccc(C)cc2)C1 (stereo not drawn) ? 1.13

Could you share which composite z-score value was measured for COC(=O)C[C@H]1O[C@]2(C(=O)N(Cc3ccccc3)c3ccc(NC(C)=O)cc32)[C@@H](C)[C@@H]1[Si](C)(C)c1ccc(OC)cc1 ? 1.14

Could you share which composite z-score value was measured for Cc1cc(C)c(C(O)C2C=CC3C(=O)N(c4ccccc4)C(=O)C3N2Nc2ccc(C#N)cc2)c(C)c1 (stereo not drawn) ? 1.05

Could you share which composite z-score value was measured for COCCOC(=O)N1C(=O)[C@@]2(c3cc(C#CC4(O)CCCCCC4)ccc31)[C@H](C(=O)N1CCCCCCC1)[C@H]1C(=O)O[C@H](c3ccccc3)[C@H](c3ccccc3)N1[C@@H]2c1ccccc1OCCO ? 1.05

Could you share which composite z-score value was measured for COCCOC(=O)N1C(=O)[C@@]2(c3cc(C#CCNC(N)=O)ccc31)[C@H](c1ccc(O)cc1)N1[C@H](c3ccccc3)[C@H](c3ccccc3)OC(=O)[C@H]1[C@@H]2C(=O)NC[C@H](O)c1ccccc1 ? 1.06

Could you share which composite z-score value was measured for COCCOC(=O)N1C(=O)[C@@]2(c3cc(C#CC4=CCCCC4)ccc31)[C@H](C(=O)NC[C@H](O)c1ccccc1)[C@H]1C(=O)O[C@H](c3ccccc3)[C@H](c3ccccc3)N1[C@@H]2c1ccc(O)cc1 ? 1.06

Could you share which composite z-score value was measured for COc1ccc(C(=O)Nc2cccc(CN3C(=O)[C@]4(O[C@H](CC(=O)N5CCC[C@H]5CO)[C@@H]([Si](C)(C)c5ccc(OC)cc5)[C@@H]4C)c4ccccc43)c2)cc1 ? 0.869

Could you share which composite z-score value was measured for O=c1cccc(C=Cc2ccccc2)o1 ? -1.13

----------
Please provide measured z-score for the entries that follow.
Assay: P. aeruginosa biofilm formation inhibitors, primary screen, PAO1 strain, BacTiter-Glo luminescence, LB-PBS (AID 1144)
Conditions: 12 h, higher = more signal
Active and inactive are the calls of the source. No rule for the calls is given here.

Could you share which z-score value was measured for [N-]=[N+]=NCc1ccccc1[C@@H]1OC(c2ccc(OCCCO)cc2)=N[C@]1(Cc1ccccc1)C(=O)N1CCCCC1 ? -0.641 (inactive)

Could you share which z-score value was measured for O=C1C2C=CC(C(O)c3ccc(B(O)O)cc3)N(Nc3ccccc3)C2C(=O)N1c1ccccc1 (stereo unspecified) ? -1.06 (inactive)

Could you share which z-score value was measured for COc1ccc([Si](C)(C)[C@@H]2[C@@H](CC(=O)N3CCC[C@H]3CO)O[C@]3(C(=O)N(C)c4c(Br)cc(C)cc43)[C@H]2C)cc1 ? 0.74 (inactive)

Could you share which z-score value was measured for O=C1O[C@@H](c2ccccc2)[C@@H](c2ccccc2)N2[C@@H](c3ccc(O)cc3)[C@]3(C(=O)Nc4ccc(C#CC5=CCCCC5)cc43)[C@@H](C(=O)O)[C@H]12 ? -2.85 (inactive)

Could you share which z-score value was measured for CCCCC(O)C1C=CC2C(=O)N(C3CCCCC3)C(=O)C2N1Nc1ccc(OC)cc1 (stereo unspecified) ? -1.47 (inactive)

Could you share which z-score value was measured for C=C[C@H](C)[C@@H](O)c1ccc(O)c2ccccc12 ? -0.501 (inactive)

Could you share which z-score value was measured for C=CCN1C(=O)[C@]2(O[C@H](CCO)[C@@H]([Si](C)(C)c3ccc(OC)cc3)[C@@H]2C)c2cc(NC(=O)[C@H](C)O)ccc21 ? 1.01 (inactive)

Could you share which z-score value was measured for CC(C)(C)OC(=O)CC[C@]1(C(=O)N2CCCCC2)N=C(c2ccc(OCCCO)cc2)O[C@H]1c1ccccc1N=[N+]=[N-] ? 0.043 (inactive)

Could you share which z-score value was measured for CC(C)(C)OC(=O)CC[C@@]1(C(=O)NCCN2CCOCC2)N=C(c2ccc(OCCCO)cc2)O[C@@H]1c1ccccc1 ? 0.174 (inactive)

Could you share which z-score value was measured for O=C(O)[C@@]1(Cc2ccccc2)N=C(c2ccc(OCCCO)cc2)O[C@H]1c1ccccc1 ? -0.622 (inactive)

Could you share which z-score value was measured for COc1ccc([Si](C)(C)[C@@H]2[C@@H](CCn3cc([C@H](O)c4ccccc4)nn3)O[C@]3(C(=O)N(Cc4ccc(N5C(=O)c6cccc7cccc5c67)cc4)c4ccccc43)[C@H]2C)cc1 ? 0.364 (inactive)

Could you share which z-score value was measured for COc1ccc([Si](C)(C)[C@@H]2[C@@H](CCn3cc([C@H](O)c4ccccc4)nn3)O[C@]3(C(=O)N(Cc4cccc(N5CCOC5=O)c4)c4ccccc43)[C@H]2C)cc1 ? -1.69 (inactive)

Could you share which z-score value was measured for CC(=O)Nc1cc(Br)ccc1C(=O)O ? 0.307 (inactive)

Could you share which z-score value was measured for O=C1c2ccccc2[C@@]2(Cc3ccccc3N(Cc3ccccc3)C2=O)[C@H](c2ccc(CO)cc2)N1C1CCCCC1 ? 0.0703 (inactive)

Could you share which z-score value was measured for Cc1ccc(F)cc1S(=O)(=O)N[C@@H]1CCN(Cc2ccc(-c3ccccc3)cc2)C1 ? 0.00325 (inactive)

Could you share which z-score value was measured for CC(=O)NCCCC[C@@H]1NC(=O)[C@H]2C[C@@H](C(=O)NCCCCCC[N+](C)(C)C)[C@@H](c3cccc(OCCO)c3)N2C1=O ? -1.01 (inactive)

Could you share which z-score value was measured for O=C1[C@]2(CO)C=C(Br)[C@@H](C[C@@H]2c2ccccc2)[C@@]12CO2 ? -0.547 (inactive)

Could you share which z-score value was measured for CC(=O)C1=CCC(c2ccccc2)N(S(=O)(=O)c2ccc(C)cc2)C1 (stereo unspecified) ? -0.65 (inactive)

Could you share which z-score value was measured for CC(C)N1C(=O)[C@@]2(c3ccc([N+](=O)[O-])cc3)CC(=O)N(CC34CC5CC(CC(C5)C3)C4)[C@@H]2c2ccc(CO)cc21 ? -0.292 (inactive)

Could you share which z-score value was measured for CCCN1C(=O)[C@@]2(CCC(=O)OC(C)(C)C)N=C(c3ccc(OCCCO)cc3)O[C@H]2c2ccccc21 ? -1.36 (inactive)

Could you share which z-score value was measured for C=C(CCCC)/C(=C/C[C@H](OC(C)=O)c1ccc(CO)o1)c1cnc2ccccc2c1 ? -1.22 (inactive)

Could you share which z-score value was measured for CC(C)NC(=O)[C@@]1(Cc2ccccc2I)c2ccccc2C(=O)N(Cc2ccccc2)[C@H]1c1ccc(CO)cc1 ? -0.549 (inactive)

Could you share which z-score value was measured for COC(=O)c1c(CC[C@@H](CO)NC(=O)N[C@@H](Cc2ccccc2)Cn2cc(C3(O)CCCCC3)nn2)oc(C(C)=O)c1C(=O)OC ? -1.73 (inactive)

Could you share which z-score value was measured for COC(=O)c1ccc(C23CC2(C(NP(=O)(c2ccccc2)c2ccccc2)c2ccccc2)C3)cc1 (stereo unspecified) ? 0.523 (inactive)

Could you share which z-score value was measured for Cc1ccc(S[C@]2(C(=O)NCc3ccccc3)CC(=O)N(Cc3ccccc3Cl)[C@@H]2c2ccc(CO)cc2I)cc1 ? -1.12 (inactive)

Could you share which z-score value was measured for C=CCC(OC(C)=O)[C@@H]1[C@@H](N(Cc2cc3ccccc3o2)C(=O)c2ccc(C)cc2)c2cc(OCCCO)ccc2N1C(=O)c1ccc2ccccc2c1 (stereo partly specified) ? -0.571 (inactive)

Could you share which z-score value was measured for COc1ccc(NN2C(C(O)c3ccc(OC)c(OCc4ccccc4)c3)C=CC3C(=O)N(C4CCCCC4)C(=O)C32)cc1 (stereo unspecified) ? -1.73 (inactive)

Could you share which z-score value was measured for O=C1N(CCS(=O)(=O)c2ccccc2)Cc2ccccc2C[C@]12N=C(c1ccc(OCCCO)cc1)O[C@@H]2c1ccccc1 ? 0.81 (inactive)

Could you share which z-score value was measured for CCC(CC)C(O)C1C=CC2C(=O)N(c3ccccc3)C(=O)C2N1Nc1ccc(C#N)cc1 (stereo unspecified) ? -0.939 (inactive)

Could you share which z-score value was measured for O=c1cccc(CCc2ccccc2)o1 ? 0.624 (inactive)

Could you share which z-score value was measured for Cc1ccc(S[C@]2(C(=O)NCC(C)C)CC(=O)N(Cc3ccccc3Cl)[C@@H]2c2ccc(CO)cc2)cc1 ? 1.15 (inactive)
